From: ChEMBL document CHEMBL1201862

Tested on: SK-MEL-2
protocol: NCI tumour cell line growth inhibition, 48 h
Calls of active or inactive are those of the source. Cut-off read from the data, not from the text of the source: active = GI50 up to about 1.1 µM and inactive = higher.
Quick reference for GI50 among some molecules

CNC(=O)OCc1c(COC(=O)NC)c(C)n(-c2ccc(Br)cc2)c1C: 15.5 µM (inactive)
CCCn1c(SC)nc(COC(=O)NC)c1COC(=O)NC: > 100 µM (inactive)
CNC1=Nc2ccccc2C(=O)N2CSCC12 (stereo unspecified): > 100 µM (inactive)
CCCCCCOc1ccc(C(=O)NO)cc1: 12.4 µM (inactive)
C=C1C[C@@H]2O[C@H]3[C@H]4[C@@H](C[C@@H](C)[C@@H](OC(C)=O)[C@H]42)[C@@H](C)CO[C@@]3(C)[C@H](OC(C)=O)C[C@H]1O: > 100 µM (inactive)
CCCCN1C(=O)c2c(Br)sc(Br)c2C1=O: 46 µM (inactive)
CN(C)CCC[N+]1=Nc2cccc3cccc(c23)N1: > 100 µM (inactive)
Nc1ccn(CCO)c(=O)n1: > 100 µM (inactive)
O=c1c2cc([N+](=O)[O-])ccc2n2n1Cc1ccccc1CC2: > 100 µM (inactive)
[O-]c1c2c(nn1-c1ccccc1)c1ccccc1c[n+]2Cc1ccccc1: > 100 µM (inactive)

In: Would you kindly share the measured GI50 for COc1ccc(SC(C)(SC)c2ccccn2)c(OC)n1 (stereo unspecified) ?
Out: 30.8 µM (inactive)
